- Test system: Escherichia coli TOP10;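 note: peptides expressed intracellularly from a pBAD plasmid library in pooled LB shake-flask culture, induced with 0.3% L-arabinose, DNA abundance read by NGS, three biological replicates, DESeq2 with apeglm shrinkage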
- assay overview: shrunken log2 fold change of peptide-encoding DNA abundance (4.5 h post-induction vs induction); higher = less antimicrobial activity (less host growth inhibition)
- measurement conditions: time post-induction: 4.5 h; library: site-saturation at positions 5, 18, 19, 20
Let's look at some sequences and their measured shrunken log2 fold change.
measurement kind: shrunken log2 fold change

# sequence entry, measurement kind, experimental result
records = [
    ("RRIRYRPPRLPRPRPRPDLIPRP", "shrunken log2 fold change", -0.302),
    ("RRIRPRPPRLPRPRPRPMNTPRP", "shrunken log2 fold change", -0.0416),
    ("RRIRGRPPRLPRPRPRPKYVPRP", "shrunken log2 fold change", 0.0402),
    ("RRIRIRPPRLPRPRPRPHMLPRP", "shrunken log2 fold change", -0.943),
    ("RRIRYRPPRLPRPRPRPSHHPRP", "shrunken log2 fold change", -1.2),
    ("RRIRVRPPRLPRPRPRPFRWPRP", "shrunken log2 fold change", -0.0443),
    ("RRIRQRPPRLPRPRPRPRCCPRP", "shrunken log2 fold change", 0.061),
    ("RRIRARPPRLPRPRPRPWYHPRP", "shrunken log2 fold change", -0.0138),
]
